What inhibition at 1 µM was measured for each of the following?
Molecular target: EPHB6 (Homo sapiens)
Sequence (O15197 32-1021): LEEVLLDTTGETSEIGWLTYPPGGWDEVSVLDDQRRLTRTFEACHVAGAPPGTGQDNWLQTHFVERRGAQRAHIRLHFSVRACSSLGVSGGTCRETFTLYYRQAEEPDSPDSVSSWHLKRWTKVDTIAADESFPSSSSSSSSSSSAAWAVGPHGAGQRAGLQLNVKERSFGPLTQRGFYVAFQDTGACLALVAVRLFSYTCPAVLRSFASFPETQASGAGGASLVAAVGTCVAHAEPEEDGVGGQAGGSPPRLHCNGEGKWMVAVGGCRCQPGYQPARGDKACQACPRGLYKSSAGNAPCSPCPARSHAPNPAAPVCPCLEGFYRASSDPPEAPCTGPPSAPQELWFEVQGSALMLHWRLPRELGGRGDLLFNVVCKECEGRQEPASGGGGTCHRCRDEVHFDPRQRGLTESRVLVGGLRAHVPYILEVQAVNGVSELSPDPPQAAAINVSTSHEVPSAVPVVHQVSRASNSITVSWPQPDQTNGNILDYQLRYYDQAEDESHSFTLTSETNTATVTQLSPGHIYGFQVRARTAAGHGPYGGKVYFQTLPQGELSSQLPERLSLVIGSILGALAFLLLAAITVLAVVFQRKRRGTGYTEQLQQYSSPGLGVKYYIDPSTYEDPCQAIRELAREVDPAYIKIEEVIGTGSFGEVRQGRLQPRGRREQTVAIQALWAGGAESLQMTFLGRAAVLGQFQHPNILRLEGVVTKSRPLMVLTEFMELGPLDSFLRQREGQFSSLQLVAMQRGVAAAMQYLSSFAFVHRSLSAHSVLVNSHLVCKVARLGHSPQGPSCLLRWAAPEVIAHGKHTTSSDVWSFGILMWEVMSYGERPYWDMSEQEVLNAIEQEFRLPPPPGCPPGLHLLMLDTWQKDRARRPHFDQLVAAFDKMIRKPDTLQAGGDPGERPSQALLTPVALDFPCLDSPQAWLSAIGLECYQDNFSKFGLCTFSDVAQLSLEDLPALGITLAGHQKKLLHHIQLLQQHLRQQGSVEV
Test: KINOMEscan competition binding
Settings: read-out: %Inh EPHB6
In your response, put the unit directly after the numeric value.

{"columns": ["compound", "inhibition at 1 µM"],
 "data": [
  ["Cc1ccc(NC(=O)Nc2cccc(C(F)(F)F)c2)cc1 [UNC10225187A]", "21%"],
  ["CS(=O)(=O)Cc1ccc(Nc2nccc(-c3c(-c4cccc(NC(=O)C5CCCCC5)c4)nn4ncccc34)n2)cc1 [UNC10225159A]", "42%"],
  ["Cn1cc(-c2cnc(N)c3c(-c4ccc5c(c4)CCN5C(=O)Cc4ccccc4)csc23)cn1 [UNC10225012A]", "98.3%"],
  ["O=c1cc(N2CCOCC2)nc2n(Cc3cccc(Cl)c3Cl)c(C3CC3)nn12 [UNC10225469A]", "33%"]
]}

Field: next compound
Would you mind telling me what inhibition at 1 µM value was observed for COc1cccc(OC)c1C(=O)Nc1cccc(-c2nn3ccccc3c2-c2ccnc(Nc3cccc(F)c3)n2)c1 [UNC10225310A] ?
42%

* * *

target: CSNK1G2 (Homo sapiens); assay: KINOMEscan competition binding; details: read-out: %Inh CSNK1G2
Sequence (P78368 whole entry): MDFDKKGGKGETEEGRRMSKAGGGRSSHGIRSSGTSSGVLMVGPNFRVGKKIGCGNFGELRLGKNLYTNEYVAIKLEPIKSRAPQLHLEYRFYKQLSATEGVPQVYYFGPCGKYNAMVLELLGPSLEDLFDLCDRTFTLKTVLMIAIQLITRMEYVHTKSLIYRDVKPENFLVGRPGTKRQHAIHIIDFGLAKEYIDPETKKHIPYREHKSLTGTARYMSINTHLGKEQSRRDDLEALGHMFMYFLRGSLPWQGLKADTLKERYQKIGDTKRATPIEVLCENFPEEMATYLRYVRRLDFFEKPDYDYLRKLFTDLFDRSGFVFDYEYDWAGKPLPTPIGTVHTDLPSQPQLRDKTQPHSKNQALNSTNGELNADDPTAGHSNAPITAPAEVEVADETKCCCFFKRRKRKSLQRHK
measured.property: inhibition at 1 µM (%)
Answers are plain numbers, in %.

Illustrative cases are given below, each with its answer.
{"columns": ["compound", "value.unit", "value"],
 "data": [
  ["CS(=O)(=O)Cc1ccc(Nc2nccc(-c3c(-c4cccc(NC(=O)C5CCCCC5)c4)nn4ncccc34)n2)cc1 [UNC10225159A]", "%", 5],
  ["COc1cccc(OC)c1C(=O)Nc1cccc(-c2nn3ccccc3c2-c2ccnc(Nc3cccc(F)c3)n2)c1 [UNC10225310A]", "%", 17],
  ["Cc1ccc(NC(=O)Nc2cccc(C(F)(F)F)c2)cc1 [UNC10225187A]", "%", 1]
]}

Dear reader, for each entry below, please note its inhibition at 1 µM.
1. Cn1cc(-c2cnc(N)c3c(-c4ccc5c(c4)CCN5C(=O)Cc4ccccc4)csc23)cn1 [UNC10225012A]
2. O=c1cc(N2CCOCC2)nc2n(Cc3cccc(Cl)c3Cl)c(C3CC3)nn12 [UNC10225469A]

1: 7; 2: 5

* * *

biological target: DYRK1A (Homo sapiens, UniProt Q13627); assay: KINOMEscan competition binding; details: read-out: %Inh DYRK1A
measured.property: inhibition at 1 µM (%)
Answers are plain numbers, in %.

{"columns": ["compound", "value.unit", "value"],
 "data": [
  ["Cn1cc(-c2cnc(N)c3c(-c4ccc5c(c4)CCN5C(=O)Cc4ccccc4)csc23)cn1 [UNC10225012A]", "%", 0]
]}

// for each compound in input: emit inhibition at 1 µM
1. Cc1ccc(NC(=O)Nc2cccc(C(F)(F)F)c2)cc1 [UNC10225187A]
2. O=c1cc(N2CCOCC2)nc2n(Cc3cccc(Cl)c3Cl)c(C3CC3)nn12 [UNC10225469A]
3. COc1cccc(OC)c1C(=O)Nc1cccc(-c2nn3ccccc3c2-c2ccnc(Nc3cccc(F)c3)n2)c1 [UNC10225310A]
4. CS(=O)(=O)Cc1ccc(Nc2nccc(-c3c(-c4cccc(NC(=O)C5CCCCC5)c4)nn4ncccc34)n2)cc1 [UNC10225159A]

0
2
0
26

* * *

molecular target: UniProt P11802; assay: KINOMEscan competition binding; settings: read-out: %Inh CDK4
Sequence (P11802 whole entry): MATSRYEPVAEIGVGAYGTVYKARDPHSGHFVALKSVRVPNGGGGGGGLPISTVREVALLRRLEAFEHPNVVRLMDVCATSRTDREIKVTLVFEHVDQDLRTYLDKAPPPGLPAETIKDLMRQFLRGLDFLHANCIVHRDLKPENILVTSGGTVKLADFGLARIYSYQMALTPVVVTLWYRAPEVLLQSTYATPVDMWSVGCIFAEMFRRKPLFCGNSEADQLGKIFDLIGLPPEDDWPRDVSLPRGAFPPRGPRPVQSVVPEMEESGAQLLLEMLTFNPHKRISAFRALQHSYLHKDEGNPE
Please respond with reported inhibition at 1 µM for every item in the list.
Answers are plain numbers, in %.

{"columns": ["compound", "inhibition at 1 µM (%)"],
 "data": [
  ["CS(=O)(=O)Cc1ccc(Nc2nccc(-c3c(-c4cccc(NC(=O)C5CCCCC5)c4)nn4ncccc34)n2)cc1 [UNC10225159A]", 18],
  ["Cn1cc(-c2cnc(N)c3c(-c4ccc5c(c4)CCN5C(=O)Cc4ccccc4)csc23)cn1 [UNC10225012A]", 0]
]}

// each compound listed below needs its inhibition at 1 µM
1. Cc1ccc(NC(=O)Nc2cccc(C(F)(F)F)c2)cc1 [UNC10225187A]
2. O=c1cc(N2CCOCC2)nc2n(Cc3cccc(Cl)c3Cl)c(C3CC3)nn12 [UNC10225469A]
3. COc1cccc(OC)c1C(=O)Nc1cccc(-c2nn3ccccc3c2-c2ccnc(Nc3cccc(F)c3)n2)c1 [UNC10225310A]

1: 0; 2: 0; 3: 0

* * *

target: BUB1 (Homo sapiens, UniProt O43683); test: KINOMEscan competition binding; conditions: read-out: %Inh BUB1
Sequence (O43683 whole entry): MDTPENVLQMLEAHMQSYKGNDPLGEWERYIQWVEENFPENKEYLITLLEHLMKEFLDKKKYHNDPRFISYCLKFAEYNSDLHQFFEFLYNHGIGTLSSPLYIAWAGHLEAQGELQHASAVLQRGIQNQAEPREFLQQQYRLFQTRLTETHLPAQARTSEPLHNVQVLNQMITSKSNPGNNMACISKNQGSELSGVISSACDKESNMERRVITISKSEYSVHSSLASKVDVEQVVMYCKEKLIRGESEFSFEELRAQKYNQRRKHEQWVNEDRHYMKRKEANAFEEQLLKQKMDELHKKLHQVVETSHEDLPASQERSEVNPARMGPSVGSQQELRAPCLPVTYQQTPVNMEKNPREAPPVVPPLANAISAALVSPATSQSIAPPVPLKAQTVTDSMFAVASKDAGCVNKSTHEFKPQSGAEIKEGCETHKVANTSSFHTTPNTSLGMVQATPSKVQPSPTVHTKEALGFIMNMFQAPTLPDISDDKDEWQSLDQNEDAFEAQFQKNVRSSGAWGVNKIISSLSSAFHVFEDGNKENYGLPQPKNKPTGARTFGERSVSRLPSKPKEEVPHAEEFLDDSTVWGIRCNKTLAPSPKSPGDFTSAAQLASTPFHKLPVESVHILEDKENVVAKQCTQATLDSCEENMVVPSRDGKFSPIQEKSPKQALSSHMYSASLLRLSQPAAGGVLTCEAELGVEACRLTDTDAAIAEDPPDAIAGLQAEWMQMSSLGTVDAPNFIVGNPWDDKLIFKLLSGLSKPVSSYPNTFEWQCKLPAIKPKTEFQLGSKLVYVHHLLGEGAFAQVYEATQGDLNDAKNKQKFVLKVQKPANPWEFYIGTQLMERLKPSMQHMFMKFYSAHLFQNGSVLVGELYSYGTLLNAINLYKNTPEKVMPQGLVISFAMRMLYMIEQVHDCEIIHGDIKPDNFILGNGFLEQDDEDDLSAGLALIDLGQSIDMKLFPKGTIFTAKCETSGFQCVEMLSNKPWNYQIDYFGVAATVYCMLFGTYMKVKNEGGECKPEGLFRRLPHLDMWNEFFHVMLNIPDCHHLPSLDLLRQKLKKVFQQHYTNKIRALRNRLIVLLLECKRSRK
Hi there, I'd appreciate the recorded inhibition at 1 µM for every entry that follows.
Answers are plain numbers, in %.

{"columns": ["compound", "system.tested", "measured.property", "value"],
 "data": [
  ["CS(=O)(=O)Cc1ccc(Nc2nccc(-c3c(-c4cccc(NC(=O)C5CCCCC5)c4)nn4ncccc34)n2)cc1 [UNC10225159A]", "BUB1 (Homo sapiens, UniProt O43683)", "inhibition at 1 µM", 98.7],
  ["COc1cccc(OC)c1C(=O)Nc1cccc(-c2nn3ccccc3c2-c2ccnc(Nc3cccc(F)c3)n2)c1 [UNC10225310A]", "BUB1 (Homo sapiens, UniProt O43683)", "inhibition at 1 µM", 11],
  ["Cn1cc(-c2cnc(N)c3c(-c4ccc5c(c4)CCN5C(=O)Cc4ccccc4)csc23)cn1 [UNC10225012A]", "BUB1 (Homo sapiens, UniProt O43683)", "inhibition at 1 µM", 0],
  ["O=c1cc(N2CCOCC2)nc2n(Cc3cccc(Cl)c3Cl)c(C3CC3)nn12 [UNC10225469A]", "BUB1 (Homo sapiens, UniProt O43683)", "inhibition at 1 µM", 0]
]}

Proceeding to the next compound to report its inhibition at 1 µM.
Quick one: inhibition at 1 µM for Cc1ccc(NC(=O)Nc2cccc(C(F)(F)F)c2)cc1 [UNC10225187A] ?
0

* * *

Provide the reported inhibition at 1 µM of each item.
molecular target: GSK3A (Homo sapiens, UniProt P49840); assay: KINOMEscan competition binding; conditions: read-out: %Inh GSK3A
Sequence (P49840 whole entry): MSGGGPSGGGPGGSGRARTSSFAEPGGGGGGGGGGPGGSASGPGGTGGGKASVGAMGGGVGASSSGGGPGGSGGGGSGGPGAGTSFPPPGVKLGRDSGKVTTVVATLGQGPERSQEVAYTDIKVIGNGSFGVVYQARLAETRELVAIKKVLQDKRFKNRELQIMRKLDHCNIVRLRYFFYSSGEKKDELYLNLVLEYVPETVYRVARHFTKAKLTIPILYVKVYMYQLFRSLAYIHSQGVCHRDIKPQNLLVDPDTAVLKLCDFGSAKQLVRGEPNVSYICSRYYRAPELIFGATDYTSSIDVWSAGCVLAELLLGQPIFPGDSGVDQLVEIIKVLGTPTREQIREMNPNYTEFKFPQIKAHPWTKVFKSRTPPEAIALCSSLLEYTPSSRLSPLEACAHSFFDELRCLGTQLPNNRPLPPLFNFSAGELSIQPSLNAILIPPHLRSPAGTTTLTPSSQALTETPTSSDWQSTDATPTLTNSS
One number for each entry, in %.

{"columns": ["compound", "system.tested", "inhibition at 1 µM, %"],
 "data": [
  ["Cc1ccc(NC(=O)Nc2cccc(C(F)(F)F)c2)cc1 [UNC10225187A]", "GSK3A (Homo sapiens, UniProt P49840)", 0],
  ["O=c1cc(N2CCOCC2)nc2n(Cc3cccc(Cl)c3Cl)c(C3CC3)nn12 [UNC10225469A]", "GSK3A (Homo sapiens, UniProt P49840)", 4]
]}

Okay, here is my list. What is inhibition at 1 µM for each of these?
1. COc1cccc(OC)c1C(=O)Nc1cccc(-c2nn3ccccc3c2-c2ccnc(Nc3cccc(F)c3)n2)c1 [UNC10225310A]
2. Cn1cc(-c2cnc(N)c3c(-c4ccc5c(c4)CCN5C(=O)Cc4ccccc4)csc23)cn1 [UNC10225012A]
3. CS(=O)(=O)Cc1ccc(Nc2nccc(-c3c(-c4cccc(NC(=O)C5CCCCC5)c4)nn4ncccc34)n2)cc1 [UNC10225159A]

24
5
0
